System: RARb:RXRa (NR concentration 270 nM, RXRa partner concentration 90 nM)
Assay: PBM binding z-score (relative to random genomic background probes); higher = stronger binding; sequences stand for … in GC…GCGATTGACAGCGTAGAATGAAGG
metric: PBM binding z-score
Give the value as a plain number.

Requested field: PBM binding z-score. Item: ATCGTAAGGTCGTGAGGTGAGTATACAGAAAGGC
3.11

Requested field: PBM binding z-score. Item: ATATGTAGGTTAGGGTAATTCAGAAAGTAGGGAA
1.33

Requested field: PBM binding z-score. Item: CCTACTGGGCCAATGTCATTGATCAGTCAAAGCA
0.363

Requested field: PBM binding z-score. Item: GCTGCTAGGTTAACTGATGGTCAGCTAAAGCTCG
1.54

Requested field: PBM binding z-score. Item: CTATGTAGGTTAAGTGGGTCATTCAGTTTGAAAG
2.15

Requested field: PBM binding z-score. Item: ATCGAAAGGTCGTGAGGTGTGTATACAGAAAGGC
3.97

Requested field: PBM binding z-score. Item: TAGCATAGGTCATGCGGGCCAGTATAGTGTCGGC
4.13

Requested field: PBM binding z-score. Item: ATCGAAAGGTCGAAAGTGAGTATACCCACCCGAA
3.19

Requested field: PBM binding z-score. Item: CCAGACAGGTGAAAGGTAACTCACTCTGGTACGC
1.26

Requested field: PBM binding z-score. Item: TCGAGTAGGTTACGGGGGCATCCAGGGATGAAGA
2.46

Requested field: PBM binding z-score. Item: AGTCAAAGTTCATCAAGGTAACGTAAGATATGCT
4.9

Requested field: PBM binding z-score. Item: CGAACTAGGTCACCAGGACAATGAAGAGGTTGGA
4.21

Requested field: PBM binding z-score. Item: CGAACTAGGTCAAAGGGCAGTGAAAGGCGACGTA
4.31

Requested field: PBM binding z-score. Item: AGTCAGAGTTCATCTAGGTAACGTAAGATATGCT
4.3

Requested field: PBM binding z-score. Item: CCTAGTAGGTTATGGGGCATTCAGGCAACGGTGA
1.13

Requested field: PBM binding z-score. Item: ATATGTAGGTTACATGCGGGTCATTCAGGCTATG
2.01

Requested field: PBM binding z-score. Item: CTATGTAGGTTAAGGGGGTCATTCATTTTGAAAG
3.38

Requested field: PBM binding z-score. Item: TATACAGGGTCAAAGGGCAGAGTACGAATGTCGA
4.84

Requested field: PBM binding z-score. Item: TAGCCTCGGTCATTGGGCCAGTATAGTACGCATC
2.33

Requested field: PBM binding z-score. Item: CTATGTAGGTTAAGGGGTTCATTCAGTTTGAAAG
1.82

Requested field: PBM binding z-score. Item: CTATGTAGGTTTAGGGGGTCATTCAGTTTGAAAG
2.93

Requested field: PBM binding z-score. Item: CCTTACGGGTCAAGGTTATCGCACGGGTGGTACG
4.2

Requested field: PBM binding z-score. Item: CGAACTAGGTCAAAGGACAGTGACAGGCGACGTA
4.01

Requested field: PBM binding z-score. Item: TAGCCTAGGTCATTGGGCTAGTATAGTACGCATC
3.46

Requested field: PBM binding z-score. Item: CTATGTAGGTTAAGGGGGTCATACAGTTTGAAAG
3.77

Requested field: PBM binding z-score. Item: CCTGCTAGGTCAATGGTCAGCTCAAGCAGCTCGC
3.79

Requested field: PBM binding z-score. Item: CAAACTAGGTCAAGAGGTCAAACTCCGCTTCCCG
5.41

Requested field: PBM binding z-score. Item: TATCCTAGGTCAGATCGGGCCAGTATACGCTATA
3.33

Requested field: PBM binding z-score. Item: CCGAGTAGGTTACGAGGGGGCATTCAATGCGAAT
2.14

Requested field: PBM binding z-score. Item: TCTGCTAGGTCAACGATGGTCAGCGAATCTGCTA
4.11

Requested field: PBM binding z-score. Item: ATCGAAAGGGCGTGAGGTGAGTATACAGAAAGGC
1.89

Requested field: PBM binding z-score. Item: AGAATGAGGTTACACGTAGATCAGGGAAGAAAGT
2.07

Requested field: PBM binding z-score. Item: TCTAGTTCGTCACGGAGGTCACACACGACGGGTA
3.83

Requested field: PBM binding z-score. Item: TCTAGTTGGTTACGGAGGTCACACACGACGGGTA
3.25

Requested field: PBM binding z-score. Item: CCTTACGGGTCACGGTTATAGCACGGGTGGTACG
4.37

Requested field: PBM binding z-score. Item: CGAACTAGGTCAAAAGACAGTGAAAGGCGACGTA
3.17

Requested field: PBM binding z-score. Item: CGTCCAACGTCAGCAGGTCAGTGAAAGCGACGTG
1.82

Requested field: PBM binding z-score. Item: ATCGAAATGTCGTGAGGTGAGTATACAGAAAGGC
0.61

Requested field: PBM binding z-score. Item: GATACAGGGTGAGCTAGAGGCCAGAGTATGGAAA
0.744

Requested field: PBM binding z-score. Item: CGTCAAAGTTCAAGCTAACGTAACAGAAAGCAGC
5.24

Requested field: PBM binding z-score. Item: TCGAGGAGGTTACGGGGGCATTCAGGGATGAAGA
3.42

Requested field: PBM binding z-score. Item: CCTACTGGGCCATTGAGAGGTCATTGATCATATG
2.82

Requested field: PBM binding z-score. Item: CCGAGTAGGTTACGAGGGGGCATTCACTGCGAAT
2.12

Requested field: PBM binding z-score. Item: CGAACTAGGTCAAAGGACAGTGCAAGGCGACGTA
4.02

Requested field: PBM binding z-score. Item: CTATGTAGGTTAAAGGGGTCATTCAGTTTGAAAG
3.87

Requested field: PBM binding z-score. Item: CTATGTAGGTTAAGGGGGTCCTTCAGTTTGAAAG
1.67

Requested field: PBM binding z-score. Item: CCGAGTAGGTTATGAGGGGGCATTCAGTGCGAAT
2.06

---

Would you mind telling me the reported PBM binding z-score of each entry?
Test system: FXR:RXRa (NR concentration 270 nM, RXRa partner concentration 90 nM)
Assay: PBM binding z-score (relative to random genomic background probes); higher = stronger binding; sequences stand for … in GC…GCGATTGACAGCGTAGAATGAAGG
Give the value as a plain number.

Requested field: PBM binding z-score. Item: CCTACTGGGCCACGAAAGGGCATTGATTCAGTGA
-0.208

Requested field: PBM binding z-score. Item: ATACCAAGGTTATCGTGAGGTCGTTGATACTAAC
3.14

Requested field: PBM binding z-score. Item: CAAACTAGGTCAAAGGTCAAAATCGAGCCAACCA
8.54

Requested field: PBM binding z-score. Item: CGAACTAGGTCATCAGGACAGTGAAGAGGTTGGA
4.1

Requested field: PBM binding z-score. Item: CGTCTAAGGTCAAAGGTCAGTGAAGAGATGACGG
8.79

---

Would you mind telling me the reported PBM binding z-score of each entry?
System: PPARg:RXRa 30nM:10nM, anti-RXR (NR concentration 30 nM, RXRa partner concentration 10 nM)
Assay: PBM binding z-score (relative to random genomic background probes); higher = stronger binding; sequences stand for … in GC…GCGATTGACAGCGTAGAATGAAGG

Requested field: PBM binding z-score. Item: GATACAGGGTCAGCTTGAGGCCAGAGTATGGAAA
0.493

Requested field: PBM binding z-score. Item: CCGACGGGGGCAAGGTTACCATAACGCACAGCCA
1.37

Requested field: PBM binding z-score. Item: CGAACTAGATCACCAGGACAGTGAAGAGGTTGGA
-0.0214

Requested field: PBM binding z-score. Item: CGAACTAGGTCACCAGGACTGTGAAGAGGTTGGA
4.45

Requested field: PBM binding z-score. Item: ATATGTAGGTTAGGGTCCTTCAGAAAGTAGGGAA
1.56

Requested field: PBM binding z-score. Item: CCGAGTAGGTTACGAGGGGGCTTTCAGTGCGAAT
0.558

Requested field: PBM binding z-score. Item: CAAACTAGGTCAAGGGGTCAAAGTCCGCTTCCCG
8.47

Requested field: PBM binding z-score. Item: GCTCGGAGGACAAGGTCAGGGCTTTGTCCGTAGA
-0.338

Requested field: PBM binding z-score. Item: CGAACTAGGTCACCATGACAGTGAAGAGGTTGGA
4.64

Requested field: PBM binding z-score. Item: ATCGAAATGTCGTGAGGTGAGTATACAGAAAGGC
-0.12

Requested field: PBM binding z-score. Item: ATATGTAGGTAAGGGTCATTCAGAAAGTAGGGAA
4.58

Requested field: PBM binding z-score. Item: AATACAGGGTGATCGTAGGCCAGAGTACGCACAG
0.131

Requested field: PBM binding z-score. Item: CCTACAGGGCCAAGGTCATTGATCAGTCAAAGCA
1.45

Requested field: PBM binding z-score. Item: TCTAGTTGGTCAAAGGCCACACACTCGAAATGCG
6.34

Requested field: PBM binding z-score. Item: CGAACTAGGTCAAAGGACAGTGGAAGGCGACGTA
8.02

Requested field: PBM binding z-score. Item: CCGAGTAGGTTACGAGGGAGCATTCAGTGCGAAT
0.0513

Requested field: PBM binding z-score. Item: ATATGTAGGTGAGGGTCATTCAGAAAGTAGGGAA
4.94

Requested field: PBM binding z-score. Item: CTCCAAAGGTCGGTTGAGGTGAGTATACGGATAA
0.12

Requested field: PBM binding z-score. Item: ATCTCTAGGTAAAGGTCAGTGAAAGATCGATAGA
4.39

Requested field: PBM binding z-score. Item: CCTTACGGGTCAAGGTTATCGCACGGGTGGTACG
2.29

Requested field: PBM binding z-score. Item: CTATGTAGGTTAAGGGGATCATTCAGTTTGAAAG
3.3

Requested field: PBM binding z-score. Item: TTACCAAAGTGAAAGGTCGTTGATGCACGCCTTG
2.97

Requested field: PBM binding z-score. Item: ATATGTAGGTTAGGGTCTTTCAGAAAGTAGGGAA
1.72

Requested field: PBM binding z-score. Item: CTATGTAGGTTAAGGGGGGCATTCAGTTTGAAAG
6.02

Requested field: PBM binding z-score. Item: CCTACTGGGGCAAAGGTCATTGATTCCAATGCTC
9.73

Requested field: PBM binding z-score. Item: CCGACTGGGGCAAAGGTTACCACACTCAGTACGA
8.43

Requested field: PBM binding z-score. Item: ATATGTAGGTTAGCGGGGGTCATTCAGACTAGGC
4.14

Requested field: PBM binding z-score. Item: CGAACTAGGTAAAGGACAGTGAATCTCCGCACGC
-0.0812

Requested field: PBM binding z-score. Item: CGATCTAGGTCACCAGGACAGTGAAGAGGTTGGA
4.33

Requested field: PBM binding z-score. Item: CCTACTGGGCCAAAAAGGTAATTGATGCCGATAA
-0.018

Requested field: PBM binding z-score. Item: CTATGTTGGTTAAGGGGGTCATTCAGTTTGAAAG
2.97

Requested field: PBM binding z-score. Item: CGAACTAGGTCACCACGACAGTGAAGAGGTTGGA
4.87

Requested field: PBM binding z-score. Item: CGTACTAGGTCAAAGGACAGTGAAAGGCGACGTA
8.11

Requested field: PBM binding z-score. Item: CAAACTAGGTCACCGGAAAGTCAAAGTCCGCATG
5.72

Requested field: PBM binding z-score. Item: CATCCAAGGTCAAAGGTCAGTGAAGAGATGACGG
8.73

Requested field: PBM binding z-score. Item: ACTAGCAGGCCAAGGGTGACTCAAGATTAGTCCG
3.6

Requested field: PBM binding z-score. Item: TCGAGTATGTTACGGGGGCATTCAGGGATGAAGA
2.44

Requested field: PBM binding z-score. Item: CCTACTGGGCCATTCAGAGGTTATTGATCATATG
0.0553

Requested field: PBM binding z-score. Item: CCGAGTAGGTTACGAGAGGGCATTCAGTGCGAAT
-0.24

Requested field: PBM binding z-score. Item: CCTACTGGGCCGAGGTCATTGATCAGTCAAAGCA
0.749

Requested field: PBM binding z-score. Item: CAGCCTAGTTCAGGGCCAGTATAGGAGGAACGTT
-0.567

Requested field: PBM binding z-score. Item: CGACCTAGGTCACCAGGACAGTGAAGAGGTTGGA
1.21

Requested field: PBM binding z-score. Item: GCTGCTAGGTCAGGTTGGTCAGCTAACGGGTACG
-0.261

Requested field: PBM binding z-score. Item: CTATGTAGGTTAATGGGGTCATTCAGTTTGAAAG
4.64

Requested field: PBM binding z-score. Item: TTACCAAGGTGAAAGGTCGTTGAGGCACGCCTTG
7.31

Requested field: PBM binding z-score. Item: AGAATGAGGTTAAGATTAGGGAAACAGAATACAT
0.986

Requested field: PBM binding z-score. Item: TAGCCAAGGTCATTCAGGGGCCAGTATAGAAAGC
1.47

Requested field: PBM binding z-score. Item: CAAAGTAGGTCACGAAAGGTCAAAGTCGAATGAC
7.11

Requested field: PBM binding z-score. Item: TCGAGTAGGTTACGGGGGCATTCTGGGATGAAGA
3.42
